Biological target: T1, hu-MCSP(D3 domain)-avi-his (human, UniProt Q6UVK1 1582-2224, biotinylated where used for selection or for coupling to the SA chip)
T1 construct: also called human MCSP(D3 domain)-avi-his; human MCSP D3
T1 sequence: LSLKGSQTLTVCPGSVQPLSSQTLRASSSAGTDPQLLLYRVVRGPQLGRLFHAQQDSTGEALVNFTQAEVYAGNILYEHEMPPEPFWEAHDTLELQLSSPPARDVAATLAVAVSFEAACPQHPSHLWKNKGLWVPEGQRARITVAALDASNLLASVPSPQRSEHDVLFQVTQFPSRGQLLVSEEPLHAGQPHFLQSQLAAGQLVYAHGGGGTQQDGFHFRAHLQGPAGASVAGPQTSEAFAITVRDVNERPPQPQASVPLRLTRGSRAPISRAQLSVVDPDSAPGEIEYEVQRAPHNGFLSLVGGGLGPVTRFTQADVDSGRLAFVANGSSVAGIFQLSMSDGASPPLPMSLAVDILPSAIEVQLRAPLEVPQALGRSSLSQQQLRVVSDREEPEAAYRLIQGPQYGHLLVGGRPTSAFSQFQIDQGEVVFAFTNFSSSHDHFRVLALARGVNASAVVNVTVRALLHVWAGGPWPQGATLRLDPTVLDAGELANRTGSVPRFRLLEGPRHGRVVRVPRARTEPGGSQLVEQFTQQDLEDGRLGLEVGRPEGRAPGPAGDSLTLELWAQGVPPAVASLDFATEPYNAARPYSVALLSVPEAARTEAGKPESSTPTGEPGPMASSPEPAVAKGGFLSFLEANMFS
Assay: SPR (ProteOn XPR36), IgG KD against parental M4-3/ML2
Record form. Attribute: Comparative binding affinity - Fold increase over parent. Fill in for each entry.
One number for each entry, in fold.

>  <binder>
M4-3/ML2 (E10) (IgG) (antibody, V domains shown, Human IgG1 format) VH: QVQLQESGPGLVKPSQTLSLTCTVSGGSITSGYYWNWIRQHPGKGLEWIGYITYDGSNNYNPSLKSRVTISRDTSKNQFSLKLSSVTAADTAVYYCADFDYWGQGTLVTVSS VL: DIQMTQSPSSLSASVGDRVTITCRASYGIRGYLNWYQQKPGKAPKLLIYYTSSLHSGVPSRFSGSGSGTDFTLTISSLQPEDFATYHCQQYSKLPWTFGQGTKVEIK

>  <experimental value>
2

$$$$
>  <binder>
M4-3/ML2(G3) (IgG) (antibody, V domains shown, Human IgG1 format) VH: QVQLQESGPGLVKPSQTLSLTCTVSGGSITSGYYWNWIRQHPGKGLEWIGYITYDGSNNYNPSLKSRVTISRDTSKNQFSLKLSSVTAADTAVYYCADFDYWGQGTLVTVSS VL: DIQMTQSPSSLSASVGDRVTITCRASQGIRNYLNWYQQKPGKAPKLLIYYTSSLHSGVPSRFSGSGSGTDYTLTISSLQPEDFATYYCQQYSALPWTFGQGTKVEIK

>  <experimental value>
6.7

$$$$

Task item: Using the record for M4-3(C1)/ML2(C5) (IgG) (antibody, V domains shown, Human IgG1 format) VH: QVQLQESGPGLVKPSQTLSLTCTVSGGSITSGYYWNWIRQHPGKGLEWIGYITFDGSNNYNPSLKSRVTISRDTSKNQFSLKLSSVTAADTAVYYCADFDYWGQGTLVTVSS VL: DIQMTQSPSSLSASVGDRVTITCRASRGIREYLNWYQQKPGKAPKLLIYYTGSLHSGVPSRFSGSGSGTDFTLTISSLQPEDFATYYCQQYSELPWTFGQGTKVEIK , state its measured Comparative binding affinity - Fold increase over parent.
Reply: 10

Values from patent US20180086849A1
